Reference source for all entries: patent US20130274233A1

Biological target: Smo::GFP (Homo sapiens, UniProt Q99835)
Sequence (Q99835 28-787): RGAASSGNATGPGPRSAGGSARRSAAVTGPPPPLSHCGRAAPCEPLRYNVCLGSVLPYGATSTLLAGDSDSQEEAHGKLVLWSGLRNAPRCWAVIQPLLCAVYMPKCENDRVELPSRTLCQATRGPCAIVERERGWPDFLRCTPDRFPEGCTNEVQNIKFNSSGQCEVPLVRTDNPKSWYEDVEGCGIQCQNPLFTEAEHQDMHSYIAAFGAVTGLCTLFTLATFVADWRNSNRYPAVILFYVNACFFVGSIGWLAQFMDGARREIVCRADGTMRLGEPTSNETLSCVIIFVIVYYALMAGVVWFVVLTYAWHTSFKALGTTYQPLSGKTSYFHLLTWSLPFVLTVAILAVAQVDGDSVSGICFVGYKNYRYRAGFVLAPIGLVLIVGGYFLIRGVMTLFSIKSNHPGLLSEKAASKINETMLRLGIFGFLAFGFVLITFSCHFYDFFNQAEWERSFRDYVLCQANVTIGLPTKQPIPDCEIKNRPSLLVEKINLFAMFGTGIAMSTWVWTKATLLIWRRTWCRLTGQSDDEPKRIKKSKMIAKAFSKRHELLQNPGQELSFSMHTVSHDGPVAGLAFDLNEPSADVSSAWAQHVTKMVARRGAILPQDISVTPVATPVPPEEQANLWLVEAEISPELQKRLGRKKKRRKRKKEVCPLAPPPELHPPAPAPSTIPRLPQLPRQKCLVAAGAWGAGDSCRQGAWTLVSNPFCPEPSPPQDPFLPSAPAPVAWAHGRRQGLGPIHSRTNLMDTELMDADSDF
Test: Ciliary accumulation of Smo::GFP upon overexpression (3T3/Smo::GFP Overexpression/Ivs::tagRFPT)
Format: cell-based
Conditions: stimulus none, read-out: IC50, inhibiton of ciliary accumulation of Smo::GFP upon overexpression
Value kind: IC50

>>> result("CCN(CC)c1ccc(/C=N/NC(=O)c2ccc(O)cc2)cc1")
"80 nM"

----------
Biological target: Smo::EGFP (Homo sapiens, UniProt Q99835)
Construct: expressed in transfected cells
Test: High content assay of Shh-induced Smo::EGFP accumulation in the primary cilium (Smo::EGFP/Ivs::tagRFPT NIH/3T3 cells)
Format: cell-based
Conditions: in the presence of Shh
Method: NIH/3T3 cells were maintained in DMEM containing 10% (v/v) calf serum, penicillin, streptomycin, and L-glutamine. […] Cells were cultured and treated in 384-well imaging plate precoated with poly-D-Lysine (Greiner Bio-one), fixed with 4% paraformaldehyde (Electron Microscopy Sciences), and stained with Hoechst (Invitrogen). […] Acapella 2.0 software (Evotec Technologies/PerkinElmer) was used to perform multi-parametrical high content image quantification. […]
Value kind: inhibition of Shh-induced Smo::EGFP accumulation in the PC

>>> result("CC(=O)N1CCN(c2ccc(OCC3COC(Cn4ccnc4)(c4ccc(Cl)cc4Cl)O3)cc2)CC1 (centres unmarked)")
"inhibited"
>>> result("Cl.Cl.Clc1ccccc1CNCC1CCC(CNCc2ccccc2Cl)CC1 (centres unmarked)")
"inhibited"
